# target_desc: CDK12 (Homo sapiens, UniProt Q9NYV4)
# Sequence (Q9NYV4 whole entry): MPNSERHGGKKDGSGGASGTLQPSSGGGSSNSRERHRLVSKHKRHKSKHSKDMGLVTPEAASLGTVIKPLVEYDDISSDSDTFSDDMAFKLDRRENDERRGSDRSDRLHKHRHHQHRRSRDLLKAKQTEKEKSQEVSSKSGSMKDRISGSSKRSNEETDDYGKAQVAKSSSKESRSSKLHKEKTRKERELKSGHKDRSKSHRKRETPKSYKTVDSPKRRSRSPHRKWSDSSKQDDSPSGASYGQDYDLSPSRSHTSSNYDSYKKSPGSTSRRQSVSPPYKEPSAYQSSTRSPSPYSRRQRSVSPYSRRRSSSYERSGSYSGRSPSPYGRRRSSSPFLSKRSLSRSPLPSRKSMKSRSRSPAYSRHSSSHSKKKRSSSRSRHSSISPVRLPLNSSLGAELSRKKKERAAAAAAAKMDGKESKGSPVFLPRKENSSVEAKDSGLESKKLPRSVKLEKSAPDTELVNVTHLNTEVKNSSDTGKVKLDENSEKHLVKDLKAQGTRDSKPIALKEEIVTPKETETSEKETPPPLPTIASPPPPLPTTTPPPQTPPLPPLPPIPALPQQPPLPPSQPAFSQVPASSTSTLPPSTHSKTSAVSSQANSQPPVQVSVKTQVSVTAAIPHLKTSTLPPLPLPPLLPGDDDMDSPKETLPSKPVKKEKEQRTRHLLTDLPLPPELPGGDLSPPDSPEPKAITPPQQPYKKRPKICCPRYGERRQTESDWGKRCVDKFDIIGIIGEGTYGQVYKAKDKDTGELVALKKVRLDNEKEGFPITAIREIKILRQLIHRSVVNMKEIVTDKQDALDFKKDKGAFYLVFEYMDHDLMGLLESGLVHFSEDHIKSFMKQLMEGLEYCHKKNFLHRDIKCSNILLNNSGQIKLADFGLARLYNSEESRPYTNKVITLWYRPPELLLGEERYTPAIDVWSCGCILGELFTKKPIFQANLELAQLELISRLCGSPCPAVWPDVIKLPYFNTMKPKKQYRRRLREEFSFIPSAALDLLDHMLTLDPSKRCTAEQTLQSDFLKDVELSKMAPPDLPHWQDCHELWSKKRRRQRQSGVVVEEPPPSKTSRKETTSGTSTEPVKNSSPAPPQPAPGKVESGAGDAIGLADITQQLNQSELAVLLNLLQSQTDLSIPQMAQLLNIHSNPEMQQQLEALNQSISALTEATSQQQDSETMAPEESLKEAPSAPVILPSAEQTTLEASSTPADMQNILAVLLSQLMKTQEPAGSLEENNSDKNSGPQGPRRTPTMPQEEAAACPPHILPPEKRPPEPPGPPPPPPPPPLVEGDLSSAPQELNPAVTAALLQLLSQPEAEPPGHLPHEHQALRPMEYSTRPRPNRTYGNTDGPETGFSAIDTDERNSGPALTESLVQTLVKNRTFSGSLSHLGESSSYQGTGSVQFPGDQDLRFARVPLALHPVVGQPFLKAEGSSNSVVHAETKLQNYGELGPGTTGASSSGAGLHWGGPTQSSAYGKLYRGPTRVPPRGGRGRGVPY
# Sequence (O75909 whole entry partner): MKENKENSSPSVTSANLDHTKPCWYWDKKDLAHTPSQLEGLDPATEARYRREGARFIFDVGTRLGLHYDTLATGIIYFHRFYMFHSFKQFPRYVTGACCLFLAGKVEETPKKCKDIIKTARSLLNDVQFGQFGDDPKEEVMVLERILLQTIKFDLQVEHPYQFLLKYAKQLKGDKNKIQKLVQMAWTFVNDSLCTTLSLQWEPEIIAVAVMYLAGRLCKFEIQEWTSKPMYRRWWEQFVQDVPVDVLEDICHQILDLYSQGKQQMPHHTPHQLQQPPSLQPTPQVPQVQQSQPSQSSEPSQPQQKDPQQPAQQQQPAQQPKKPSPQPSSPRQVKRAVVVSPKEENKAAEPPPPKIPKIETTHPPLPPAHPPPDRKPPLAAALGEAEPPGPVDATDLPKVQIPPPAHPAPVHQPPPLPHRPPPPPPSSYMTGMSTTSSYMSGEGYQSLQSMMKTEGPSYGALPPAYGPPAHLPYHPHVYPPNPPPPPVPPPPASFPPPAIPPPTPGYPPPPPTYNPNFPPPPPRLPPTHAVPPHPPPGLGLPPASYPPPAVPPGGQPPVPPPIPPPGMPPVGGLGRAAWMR
# measurement_description: Biochemical assay for CDK12 (LANCE TR-FRET, IC50 determination)
# stated_conditions: CDK12, IC50 class; read-out: IC50 μM (in range)
// reported IC50 per item
property_measured: IC50

molecule | property_measured | observed_result
COCCOc1cc(NC(=O)Cc2ccc(C3=CCN(C#N)CC3)nc2)ncc1Cl | IC50 | < 0.01 µM
N#CN1CCC=C(c2ccc(CC(=O)Nc3ccc(F)cn3)cn2)C1 | IC50 | 0.01 to 0.1 µM
COc1cc(NC(=O)Cc2ccc(C3=CC4CCC3CN4C#N)nc2)ncc1Cl (centres unmarked) | IC50 | < 0.01 µM
COc1cc(NC(=O)Cc2ccc(-c3cc(O[C@H]4CCOC4)cc(C#N)n3)nc2)ncc1Cl [Compound 196] | IC50 | 0.01 to 0.1 µM
N#CN1CCC=C(c2ccc(CC(=O)Nc3cc(OC4CCCOC4)c(Cl)cn3)cn2)C1 (centres unmarked) [Compound 43] | IC50 | < 0.01 µM
COc1cc(NC(=O)Cc2ccc(C3CCN(C#N)CC3C)nc2)ncc1Cl (centres unmarked) | IC50 | 0.01 to 0.1 µM
N#CN1CC=C(c2ccc(CC(=O)Nc3cc(N4CCOCC4)c(Cl)cn3)cn2)CC1 | IC50 | 0.01 to 0.1 µM
CC1(C)CC(Oc2cc(NC(=O)Cc3ccc(C4=CCN(C#N)CC4)nc3)ncc2Cl)CCN1 (centres unmarked) | IC50 | 0.01 to 0.1 µM
COc1cc(NC(=O)Cc2ccc(C3CCN(C#N)CC3)nc2)ncc1Cl | IC50 | < 0.01 µM
CNC(=O)C(C)Oc1cc(NC(=O)Cc2ccc(C3=CCCN(C#N)C3)nc2)ncc1Cl (single isomer, unassigned) [Compound 58] | IC50 | < 0.01 µM
COc1cc(NC(=O)Cc2ccc(C3=CCCN(C#N)C3)nc2)ncc1Cl | IC50 | < 0.01 µM
N#CN1CC=C(c2ccc(CC(=O)Nc3cc(OC4CCC4)c(Cl)cn3)cn2)CC1 | IC50 | < 0.01 µM
CN(C)c1cc(NC(=O)Cc2ccc(C3=CCCN(C#N)C3)nc2)ncc1Cl | IC50 | 0.01 to 0.1 µM
CN1CC[C@@H](Oc2cc(NC(=O)Cc3ccc(C4CCN(C#N)CC4)nc3)ncc2Cl)C1 | IC50 | > 0.1 µM
COc1cc(CC(=O)Nc2cc(O[C@@H]3CCOC3)c(Cl)cn2)cnc1C1=CCN(C#N)CC1 | IC50 | < 0.01 µM
COc1cc(NC(=O)Cc2ccc(C3=CCCN(C#N)C3)cc2)ncc1Cl | IC50 | < 0.01 µM
N#CN1CCCC(c2ccc(CC(=O)Nc3cc(O[C@H]4CCOC4)c(Cl)cn3)cn2)C1 (some centres unmarked) [Compound 95] | IC50 | 0.01 to 0.1 µM

====

# target_desc: CDK12 (Homo sapiens, UniProt Q9NYV4)
# measurement_description: Biochemical assay for CDK12 (LANCE TR-FRET, IC50 determination)
# stated_conditions: CDK12, IC50 class; read-out: IC50 μM (in range)
# Description: Biochemical Assay for CDK12 (IC50 Determination): The inhibitory activity of the test compounds was assessed by the LANCE TR-FRET assay, which detects the ATP-dependent phosphorylation of an ULight-4E-BP1 (Thr37/Thr46) substrate peptide (100 nM) by CDK12 (30 nM). […] Time-resolved fluorescence (excitation, 320 nm; emission donor, 615 nm; emission acceptor, 665 nm) was monitored by using 2030 multilabel reader Victor5 (PerkinElmer). […]
// reported IC50 per item
property_measured: IC50

compound | observed_result
COc1cc(NC(=O)Cc2ccc(-c3ccc(CN(C#N)C(C)C)nc3)nc2)ncc1Cl | > 0.1 µM
COc1cc(NC(=O)Cc2ccc(C3=CCN(C#N)C(C)C3)nc2)ncc1Cl (single isomer, unassigned) [Compound 66] | 0.01 to 0.1 µM
CN1CCC[C@@H](Oc2cc(NC(=O)Cc3ccc(C4=CCCN(C#N)C4)nc3)ncc2Cl)C1 | < 0.01 µM
COc1cc(NC(=O)Cc2ccc(C3=CCN(C#N)C(C)C3)nc2)ncc1Cl (single isomer, unassigned) [Compound 68] | < 0.01 µM

====

# target_desc: CDK12 (Homo sapiens)
# measurement_description: Biochemical assay for CDK12 (LANCE TR-FRET, IC50 determination)
# stated_conditions: compound at 10 μM; read-out: CDK12 % Inhibition @ 10 μM
// reported inhibition at 10 µM per item

compound | value_units | inhibition at 10 µM
CSc1ccc(NC(=O)Cc2ccc(C3=CCCN(C#N)C3)nc2)nc1 [Compound 107] | % | 95
COc1cc(NC(=O)Cc2ccc(C3=CCN(C#N)CC3C)nc2)ncc1Cl (single isomer, unassigned) [Compound 71] | % | 93
COc1cc(NC(=O)Cc2ccc(C3=CCN(C#N)C(C)C3)nc2)ncc1Cl (single isomer, unassigned) [Compound 66] | % | 88
CNC(=O)C(C)Oc1cc(NC(=O)Cc2ccc(-c3ccnc(C#N)c3)nc2)ncc1Cl (centres unmarked) [Compound 144] | % | 92
COc1cc(NC(=O)Cc2ccc(-c3cccc(C#N)n3)nc2)ncc1Cl [Compound 156] | % | 80
CNC(=O)[C@H](C)Oc1cc(NC(=O)Cc2ccc(-c3ccc(C#N)nc3)nc2)ncc1Cl [Compound 147] | % | 89
N#Cc1ncc(-c2ccc(CC(=O)Nc3cc(O[C@@H]4CCOC4)c(Cl)cn3)cn2)cn1 [Compound 150] | % | 83
CN1CC[C@@H](Oc2cc(NC(=O)Cc3ccc(C4CCN(C#N)CC4)nc3)ncc2Cl)C1 [Compound 119] | % | 78

====

# target_desc: CDK12 (Homo sapiens, UniProt Q9NYV4)
# measurement_description: Biochemical assay for CDK12 (LANCE TR-FRET, IC50 determination)
# stated_conditions: compound at 10 μM; read-out: CDK12 % Inhibition @ 10 μM

molecule | target_desc | inhibition at 10 µM
COc1cc(NC(=O)C(C)c2ccc(C3=CCCN(C#N)C3)nc2)ncc1Cl (single isomer, unassigned) [Compound 49] | CDK12 (Homo sapiens, UniProt Q9NYV4) | 89%
COc1cc(NC(=O)Cc2ccc(-c3cc(N4CCC(C)(O)C4)cc(C#N)n3)nc2)ncc1Cl (stereo not shown) | CDK12 (Homo sapiens, UniProt Q9NYV4) | 94%
COC[C@H](C)Oc1cc(NC(=O)Cc2ccc(C3=CCCN(C#N)C3)nc2)ncc1Cl | CDK12 (Homo sapiens, UniProt Q9NYV4) | 95%
N#CN1CCC=C(c2ccc(CC(=O)Nc3cc(OC4CCCOC4)c(Cl)cn3)cn2)C1 (stereo not shown) [Compound 43] | CDK12 (Homo sapiens, UniProt Q9NYV4) | 87%

====

# target_desc: CDK12 (Homo sapiens)
# measurement_description: Biochemical assay for CDK12 (LANCE TR-FRET, IC50 determination)
# stated_conditions: compound at 10 μM; read-out: CDK12 % Inhibition @ 10 μM
# Description: Biochemical Assay for CDK12 (IC50 Determination): The inhibitory activity of the test compounds was assessed by the LANCE TR-FRET assay, which detects the ATP-dependent phosphorylation of an ULight-4E-BP1 (Thr37/Thr46) substrate peptide (100 nM) by CDK12 (30 nM). […] Time-resolved fluorescence (excitation, 320 nm; emission donor, 615 nm; emission acceptor, 665 nm) was monitored by using 2030 multilabel reader Victor5 (PerkinElmer). […]

compound | target_desc | value_units | inhibition at 10 µM
CNC(=O)C(C)Oc1cc(NC(=O)Cc2ccc(C3CCN(C#N)CC3)nc2)ncc1Cl (single isomer, unassigned) [Compound 83] | CDK12 (Homo sapiens) | % | 84
N#CN1CC=C(c2ncc(CC(=O)Nc3ccc(Cl)cn3)cc2F)CC1 | CDK12 (Homo sapiens) | % | 87
CN1CCC[C@H](Oc2cc(NC(=O)Cc3ccc(C4CCN(C#N)CC4)nc3)ncc2Cl)C1 | CDK12 (Homo sapiens) | % | 72
N#CN1CCC=C(c2ccc(CC(=O)Nc3cnc(Cl)cn3)cn2)C1 | CDK12 (Homo sapiens) | % | 85
N#CN1CCCC(c2ccc(CC(=O)Nc3cc(O[C@@H]4CCOC4)c(Cl)cn3)cn2)C1 (stereo partly shown) [Compound 92] | CDK12 (Homo sapiens) | % | 90
N#CN1CCCC(c2ccc(CC(=O)Nc3cc(O[C@H]4CCOC4)c(Cl)cn3)cn2)C1 (stereo partly shown) [Compound 95] | CDK12 (Homo sapiens) | % | 90
N#CN1CC=C(c2ccc(CC(=O)Nc3cc(N4CCOCC4)c(Cl)cn3)cn2)CC1 | CDK12 (Homo sapiens) | % | 88
COc1cc(NC(=O)C(C)c2ccc(C3=CCN(C#N)CC3)nc2)ncc1Cl (stereo not shown) [Compound 51] | CDK12 (Homo sapiens) | % | 102
CN1CCC(Oc2cc(NC(=O)Cc3ccc(C4=CCN(C#N)CC4)nc3)ncc2Cl)C1 (stereo in doubt) [Compound 29] | CDK12 (Homo sapiens) | % | 86
COc1cc(NC(=O)Cc2ccc(-c3cc(N(C)CCN(C)C)cc(C#N)n3)nc2)ncc1Cl | CDK12 (Homo sapiens) | % | 90
COc1cc(NC(=O)Cc2ccc(-c3cc(OC4COC4)cc(C#N)n3)nc2)ncc1Cl | CDK12 (Homo sapiens) | % | 80
COc1cc(NC(=O)Cc2ccc(-c3ccc(CNC#N)nc3)nc2)ncc1Cl | CDK12 (Homo sapiens) | % | 95
CNC(=O)[C@H](C)Oc1cc(NC(=O)Cc2cnc(C3CCN(C#N)CC3)c(OC)c2)ncc1Cl | CDK12 (Homo sapiens) | % | 83
